# System: PC-3 prostate
# ASSAY METHOD TEXT: NCI-60 one-dose screen, 48 h
# DETAILS: 10 µM unless noted
# Procedure: Growth inhibition of the PC-3 human tumor cell line is measured as a screen for anti-cancer activity. Cells are grown in 96 well plates and exposed to the test compound for 48 hours. Compounds are tested at a single concentration, which is 10^-5 M for most compounds. The reported endpoint is percent growth (GI% or GIPRCNT), where numbers from 0 - 100% represent growth inhibition, and numbers from -100% - 0 represent cell death. For example, a value of 40 represents 60% growth inhibition. […]
The panel holds about 83,000 compounds, 20% with a hit somewhere; the sample as a whole holds those more often. Activity calls are given as the source filed them. Rule for the calls: active = growth percent below 10; inactive = the rest.
Outcome codes: active, inactive

>  <INPUT SMILES>
O=C(C1=Cc2cc3ccccc3n2Cc2cnnn21)c1ccccc1

>  <LABEL CLASS>
inactive

$$$$
>  <INPUT SMILES>
COc1cc(Nc2nc(N[C@H]3CCCC[C@@H]3N)nc3cc[nH]c(=O)c23)cc(OC)c1

>  <LABEL CLASS>
inactive

$$$$
>  <INPUT SMILES>
OCCCCCCNc1ncnc2cc(Cl)ccc12

>  <LABEL CLASS>
inactive

$$$$
>  <INPUT SMILES>
COc1ccc2[nH]c(=O)c3c4ccccc4cn3c2c1

>  <LABEL CLASS>
active

$$$$
>  <INPUT SMILES>
O=C(CCl)N(C1CCCCC1)C1CCCCC1

>  <LABEL CLASS>
inactive

$$$$
>  <INPUT SMILES>
COc1cc(NC(N)=NCCC(C)(C)c2ccc(C(F)(F)F)cc2)ncc1C#N

>  <LABEL CLASS>
inactive

$$$$
>  <INPUT SMILES>
COc1ccc(/C=C(\C#N)c2cc(OC)c3c(c2)OCO3)cc1

>  <LABEL CLASS>
inactive

$$$$
>  <INPUT SMILES>
CC(C)(C)n1cc(-c2ccnc(NCCCNS(=O)(=O)c3ccc(F)cc3)c2)c(-c2cccc(O)c2)n1

>  <LABEL CLASS>
inactive

$$$$
>  <INPUT SMILES>
CN(C[C@H]1Cc2c(cccc2N2CCN(c3ncccn3)CC2)CN1)[C@H]1CCCc2cccnc21

>  <LABEL CLASS>
inactive

$$$$
>  <INPUT SMILES>
CNc1ccc(Br)c2c1C(=O)c1ccccc1C2=O

>  <LABEL CLASS>
inactive

$$$$
>  <INPUT SMILES>
COc1cc(-c2nn(-c3cccc(NC(=O)Nc4cccc(C(F)(F)F)c4)c3)cc2-c2ccncc2)ccc1Cl

>  <LABEL CLASS>
active

$$$$

----------
# Tested on: K-562 leukemia
# ASSAY METHOD TEXT: NCI-60 one-dose screen, 48 h (100 = growth as untreated, 0 = no growth, -100 = all killed)
# DETAILS: 10 µM unless noted
About 83,000 compounds went through this panel and 20% of them were active in at least one assay; those are over-represented in the sample as a whole. The source made the active and inactive calls. The calls were made as follows: active = growth percent below 10; inactive = the rest.
QUANTITY NAME: growth

>  <COMPOUND>
COC(=O)C(Sc1ccc(Cl)cc1)C1SC(=S)N(Cc2ccccc2)C1=O (centres undefined)

>  <TEST VALUE>
44% (inactive)

$$$$
>  <COMPOUND>
C/C(=C\c1ccc(OCC(=O)O)c(Cl)c1Cl)[N+](=O)[O-]

>  <TEST VALUE>
88% (inactive)

$$$$
>  <COMPOUND>
COc1cccc(-c2nc3sccn3c2-c2ccnc(NCCCNS(=O)(=O)c3ccc(C(F)(F)F)cc3)c2)c1

>  <TEST VALUE>
28.1% (inactive)

$$$$
>  <COMPOUND>
COc1cc(-c2nn(-c3cccc(NC(=O)c4ccc(N5CCOCC5)c(C(F)(F)F)c4)c3)cc2-c2ccncc2)ccc1Cl

>  <TEST VALUE>
1.22% (active)

$$$$
>  <COMPOUND>
COc1ccc(-c2nc3sccn3c2/C=C/C(=O)c2cc(F)cc(F)c2)cc1

>  <TEST VALUE>
19.1% (inactive)

$$$$
>  <COMPOUND>
CCCCCCCC/C=C/CCCCCCCC1=NC(C)(C)CN1C(C)(C)CO

>  <TEST VALUE>
-58.6% (active)

$$$$
>  <COMPOUND>
O=C1/C(=C/c2ccccc2)CN(C(=O)CCN2CCC(=NO)CC2)C/C1=C\c1ccccc1

>  <TEST VALUE>
6.48% (active)

$$$$
>  <COMPOUND>
CCN(CC)CCCC(C)Nc1c2ccc(Cl)cc2nc2cc(OC)c(OC)cc12 (centres undefined)

>  <TEST VALUE>
-16.4% (active)

$$$$
>  <COMPOUND>
Oc1ccc2cc(Br)ccc2c1-c1c(O)ccc2cc(Br)ccc12

>  <TEST VALUE>
54% (inactive)

$$$$
